- System: U2OS
- PROTOCOL SUMMARY: Multiplex assay against U2OS
- Format: toxicity, cell-based
- CONDITION SET: human, 24 h, 10 µM, compound concentration 10 uM, replicate 2
# reported Population Membrane Permeable-Phenotype (%); entries follow
QUANTITY KIND: Population Membrane Permeable-Phenotype (%)

# COMPOUND, READING UNIT, MEAS VALUE
data = [
    ("CN1C(=O)[C@@H](NC(=O)c2cc3ccccc3[nH]2)N=C(c2ccccc2)c2ccccc21 [DEVAZEPIDE]", "%", 19),
    ("Cl.Cn1c2c(c3ccc(Cl)c(Cl)c31)C(C#N)C1(CCNCC1)NC2=O (stereo not drawn)", "%", 75),
    ("CC[C@H](Nc1ncnc2[nH]cnc12)c1nc2cccc(F)c2c(=O)n1-c1ccccc1", "%", 8),
    ("Cc1c(Nc2ccc(S(=O)(=O)N3CCN(C)CC3)cc2F)nc2ccc(Nc3cnn(C4CC4)c3)cn2c1=O", "%", 10),
    ("CN(c1cc(C(F)(F)F)nc(OCCC(=O)O)n1)c1cccc2c1CCC2", "%", 3),
    ("C=CC(=O)Nc1cc(-n2c(=O)ccc3cnc4ccc(-c5ccc(NS(C)(=O)=O)cc5)cc4c32)ccc1C", "%", 22),
    ("CC(Cc1ccc(O)c(O)c1)C(C)Cc1ccc(O)c(O)c1 (stereo not drawn) [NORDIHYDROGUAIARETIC ACID]", "%", 1),
    ("Cc1ccc(NC(=O)Nc2cc(C(F)(F)F)ccc2F)cc1Nc1ccc2c(c1)NC(=O)/C2=C\\c1ccc[nH]1", "%", 7),
    ("CC[C@@H]1C(=O)N(C)c2cnc(Nc3ccc(C(=O)NC4CCN(C)CC4)cc3OC)nc2N1C1CCCC1", "%", 84),
    ("CCOc1ccn(-c2ccc(F)cc2)c(=O)c1C(=O)Nc1ccc(Oc2ccnc(N)c2Cl)c(F)c1", "%", 8),
    ("Oc1cccc(-c2nc(N3CCOCC3)c3oc4ncccc4c3n2)c1", "%", 44),
    ("N#Cc1cccc(C(=O)Nc2cc(-c3ccccc3)nn2-c2ccccc2)c1", "%", 30),
    ("CC(C)[C@H](CO)Nc1nc(Nc2cccc(Cl)c2)c2ncn(C(C)C)c2n1", "%", 50),
    ("Cl.NC[C@@H]1O[C@H](C23CC4CC(CC(C4)C2)C3)Cc2c1ccc(O)c2O", "%", 26),
    ("C[C@@H](Oc1cc(-n2cnc3ccc(CN4CCN(C)CC4)cc32)sc1C(N)=O)c1ccccc1C(F)(F)F", "%", 90),
    ("Cc1c(P(=S)(c2ccccc2)c2ccccc2)n2ccccc2[n+]1C/C=C/c1ccccc1.[Br-]", "%", 81),
    ("CCOC(=O)CCNc1cc(N2CCc3ccccc3CC2)nc(-c2ccccn2)n1", "%", 8),
    ("CN1CCN(Cc2ccc(-c3cnc4[nH]cc(-c5ccc6[nH]ccc6c5)c4c3)cc2)CC1", "%", 40),
]

----------
# reported Growth Rate; entries follow
- Tested on: U2OS
- PROTOCOL SUMMARY: Incucyte cell viability with U2OS; also: filed as whole numbers so only -1 and 0 and 1 occur
- Format: toxicity, cell-based
- CONDITION SET: human, 6 h, 10 µM, compound concentration 10 uM, replicate number 2, timepoint 6 hours

# COMPOUND, ASSAY TARGET, Growth Rate
records = [
    ("CS(=O)(=O)N1CCCC(NC(=O)[C@H](CCC2CCCCC2)NC(=O)c2ccc(CNC(=O)c3cnc4ccccn34)cc2)C1 (stereo not given in full)", "U2OS", 0),
    ("COc1cc(OC)c(NC(=O)c2ccc(Cc3cc4c(cc3C)C(C)(C)CCC4(C)C)o2)c(OC)c1", "U2OS", 1),
    ("COc1cc(C#N)ccc1S(=O)(=O)Nc1ccc2c(c1)cc(C)c(=O)n2C", "U2OS", 1),
    ("CC(C)(O)c1cncc(-c2nc3ccc(F)cc3n2C2CC2)c1", "U2OS", 1),
    ("CC(C)c1ccc(CC(=O)N2CCC[C@@H](c3cccc(OC(C)(C)C(=O)O)c3)C2)cc1", "U2OS", 0),
    ("Cl.O=C(Cc1ccc(Cl)c(Cl)c1)N1CCCC[C@H]1CN1CCCC1", "U2OS", 1),
    ("Cc1cc2c(cc1-c1cc(/C=C/C(=O)O)ccc1O)C(C)(C)CCC2(C)C", "U2OS", 0),
    ("CC(C)(N)C(=O)N[C@H](COCc1ccccc1)C(=O)N1CCC2(CC1)CN(S(C)(=O)=O)c1ccccc12.CS(=O)(=O)O [IBUTAMOREN MESYLATE]", "U2OS", 1),
    ("Cc1cc(OCC(=O)O)cc(C)c1Cc1ccc(O)c(C(C)C)c1", "U2OS", 0),
    ("CCCCN(CC)c1nc(C)nc2c1c(C)cn2-c1c(C)cc(C)cc1C.Cl", "U2OS", 1),
    ("Cc1c(C2=CCN(C(=O)N(C)C(C)C)CC2)nnn1-c1cccnc1F", "U2OS", 0),
    ("COc1ccc2c(c1)O[C@H](c1ccc(OC)c(OC)c1)C[C@@H]2NC(=O)C1(c2ccc3c(c2)OC(F)(F)O3)CC1", "U2OS", 0),
    ("COc1cccc(CNC(=O)c2nc3scc(COCc4ccc(C(=O)O)cc4)c3c(=O)[nH]2)c1 [T-26c]", "U2OS", 0),
    ("NC(=O)[C@@H]1CCCN1C(=O)[C@H](Cc1cnc[nH]1)NC(=O)[C@@H]1CCC(=O)N1", "U2OS", 0),
    ("CCN1CCC[C@H]1CNC(=O)c1c(OC)ccc(Br)c1OC [REMOXIPRIDE]", "U2OS", 1),
    ("Cc1c(Nc2ccc(S(=O)(=O)N3CCN(C)CC3)cc2F)nc2ccc(Nc3cnn(C4CC4)c3)cn2c1=O", "U2OS", 1),
    ("CCC(=O)NC1Cc2ccccc2C(c2ccccc2)C1 (stereo not given)", "U2OS", 0),
    ("CCOP(=O)(OCC)C(=Cc1cc(C(C)(C)C)c(O)c(C(C)(C)C)c1)P(=O)(OCC)OCC", "U2OS", 0),
    ("CCOC(=O)c1ccc(C#Cc2ccc3c(c2)C(C)(C)CCS3)nc1", "U2OS", 1),
    ("CC(Cc1ccc(O)c(O)c1)C(C)Cc1ccc(O)c(O)c1 (stereo not given) [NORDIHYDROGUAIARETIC ACID]", "U2OS", 0),
]
